Experiment: Stability of the analytes in rat plasma samples under storage conditions
Format: physicochemical
Conditions: spiked concentration 6400 ng/mL, n = 6
READOUT_LABEL: Measured, Three freeze-thaw cycles (ng/mL)

• O=c1cc(-c2ccccc2)oc2cc(O[C@@H]3O[C@H](CO[C@@H]4O[C@H](CO)[C@@H](O)[C@H](O)[C@H]4O)[C@@H](O)[C@H](O)[C@H]3O)c(O)c(O)c12 [Oroxin B, oroxin B] = 6068.65
• O=C(O)[C@H]1O[C@@H](Oc2cc(O)c3c(=O)cc(-c4ccccc4)oc3c2)[C@H](O)[C@@H](O)[C@@H]1O [Chrysin-7-O-β-D-glucuronide, chrysin-7-O-β-D-glucuronide] = 6316.77
• O=c1cc(-c2ccccc2)oc2cc(O[C@@H]3O[C@H](CO)[C@@H](O)[C@H](O)[C@H]3O)c(O)c(O)c12 [Oroxin A, oroxin A] = 6021.13
• O=c1cc(-c2ccccc2)oc2cc(O)c(O)c(O)c12 [Baicalein, baicalein] = 5967.02
